system: HeLa; experiment: Cellular uptake in human HeLa cells assessed as fluorescence intensity by FACS analysis relative to control; type: ADME, cell-based; conditions: in the assay text read “fluorescence microscopy” for “FACS analysis”
Numbered stars: 1 amine (or outer) side, 2 acyl side, 3 side chain; on linkers, the order of the positions; unused ones are H or OH. Bridge positions count the residues as written; N and C are the ends. Square brackets hold non-standard residues; d marks the D form. Peptide text beside a SMILES is read from it. * marks the point of attachment. Fluorescein(5-NHCS) = O=C1OC2(c3ccc(O)cc3Oc3cc(O)ccc32)c2cc(NC(=S)*)ccc21; Gly(N-but-3-enyl) = O=C(CN(CCC=[*:3])[*:1])[*:2]; X3 = O=C(CN(CCCCCCC=[*:3])[*:1])[*:2]; N(7-octenyl)Gly = C=CCCCCCCNCC(=O)O; Ava = NCCCCC(=O)O
Measured Drug uptake, listed per entry.
Reply with just the number (in %).

Compound | Drug uptake (%)
C=CCN(CC(=O)N[C@@H](CCC(=O)O)C(=O)N1CCC[C@H]1C(=O)N[C@H](C(=O)N[C@@H](C)C(=O)N1CCC[C@H]1C(=O)N1CCC[C@H]1C(=O)N[C@@H](CCC(=O)O)C(=O)N(CC=C)CC(N)=O)[C@@H](C)O)C(=O)CCCCNC(=S)Nc1ccc2c(c1)C1(OC2=O)c2ccc(O)cc2Oc2cc(O)ccc21 (stereo in doubt; 1'-(1,1)) | 74
C=CCCCCCCN(CC(=O)N1CCC[C@H]1C(=O)N[C@H](C(=O)N[C@@H](C)C(=O)N1CCC[C@H]1C(=O)N1CCC[C@H]1C(=O)N(CCCCCCC=C)CC(=O)N[C@@H](CCC(=O)O)C(N)=O)[C@@H](C)O)C(=O)[C@@H]1CCCN1C(=O)CCCCNC(=S)Nc1ccc2c(c1)C1(OC2=O)c2ccc(O)cc2Oc2cc(O)ccc21 ({Fluorescein(5-NHCS)-Ava}-P[N(7-octenyl)Gly]PTAPP[N(7-octenyl)Gly]E-NH2) | 45
C[C@@H]1NC(=O)[C@H]([C@@H](C)O)NC(=O)[C@@H]2CCCN2C(=O)CN(C(=O)[C@@H]2CCCN2C(=O)CCCCNC(=S)Nc2ccc3c(c2)C2(OC3=O)c3ccc(O)cc3Oc3cc(O)ccc32)CC/C=C\CCCCCCN(CC(N)=O)C(=O)[C@H](CCC(=O)O)NC(=O)[C@@H]2CCCN2C(=O)[C@@H]2CCCN2C1=O | 77
C[C@@H]1NC(=O)[C@H]([C@@H](C)O)NC(=O)[C@@H]2CCCN2C(=O)[C@H](CCC(=O)O)NC(=O)CN(C(=O)CCCCNC(=S)Nc2ccc3c(c2)C2(OC3=O)c3ccc(O)cc3Oc3cc(O)ccc32)CCCCCC/C=C\CCCCCCN(CC(N)=O)C(=O)[C@H](CCC(=O)O)NC(=O)[C@@H]2CCCN2C(=O)[C@@H]2CCCN2C1=O | 328
C[C@@H]1NC(=O)[C@H]([C@@H](C)O)NC(=O)[C@@H]2CCCN2C(=O)CN(C(=O)[C@@H]2CCCN2C(=O)CCCCNC(=S)Nc2ccc3c(c2)C2(OC3=O)c3ccc(O)cc3Oc3cc(O)ccc32)CCCCCC/C=C\CCCCCCN(CC(N)=O)C(=O)[C@H](CCC(=O)O)NC(=O)[C@@H]2CCCN2C(=O)[C@@H]2CCCN2C1=O | 199
C[C@@H]1NC(=O)[C@H]([C@@H](C)O)NC(=O)[C@@H]2CCCN2C(=O)CN(C(=O)[C@@H]2CCCN2C(=O)CCCCNC(=S)Nc2ccc3c(c2)C2(OC3=O)c3ccc(O)cc3Oc3cc(O)ccc32)CC/C=C/CCCCCCN(CC(=O)N[C@@H](CCC(=O)O)C(N)=O)C(=O)[C@@H]2CCCN2C(=O)[C@@H]2CCCN2C1=O ({Fluorescein(5-NHCS)-Ava}-P[Gly(N-but-3-enyl)]PTAPP[X3]E-NH2; staple (E) 2-8) | 76
C=CCCCCCCN(CC(N)=O)C(=O)[C@H](CCC(=O)O)NC(=O)[C@@H]1CCCN1C(=O)[C@@H]1CCCN1C(=O)[C@H](C)NC(=O)[C@@H](NC(=O)[C@@H]1CCCN1C(=O)CN(CCCCCCC=C)C(=O)[C@@H]1CCCN1C(=O)CCCCNC(=S)Nc1ccc2c(c1)C1(OC2=O)c2ccc(O)cc2Oc2cc(O)ccc21)[C@@H](C)O | 42
C=CCN(CC(N)=O)C(=O)[C@H](CCC(=O)O)NC(=O)[C@@H]1CCCN1C(=O)[C@@H]1CCCN1C(=O)[C@H](C)NC(=O)[C@@H](NC(=O)[C@@H]1CCCN1C(=O)CN(CC=C)C(=O)[C@@H]1CCCN1C(=O)CCCCNC(=S)Nc1ccc2c(c1)C1(OC2=O)c2ccc(O)cc2Oc2cc(O)ccc21)[C@@H](C)O | 98
C=CCCCCCCN(CC(=O)N[C@@H](CCC(=O)O)C(=O)N1CCC[C@H]1C(=O)N[C@H](C(=O)N[C@@H](C)C(=O)N1CCC[C@H]1C(=O)N1CCC[C@H]1C(=O)N[C@@H](CCC(=O)O)C(=O)N(CCCCCCC=C)CC(N)=O)[C@@H](C)O)C(=O)CCCCNC(=S)Nc1ccc2c(c1)C1(OC2=O)c2ccc(O)cc2Oc2cc(O)ccc21 | 35
C[C@@H]1NC(=O)[C@H]([C@@H](C)O)NC(=O)[C@@H]2CCCN2C(=O)CN(C(=O)[C@@H]2CCCN2C(=O)CCCCNC(=S)Nc2ccc3c(c2)C2(OC3=O)c3ccc(O)cc3Oc3cc(O)ccc32)CCCCCC/C=C\CCCCCCN(CC(=O)N[C@@H](CCC(=O)O)C(N)=O)C(=O)[C@@H]2CCCN2C(=O)[C@@H]2CCCN2C1=O ({Fluorescein(5-NHCS)-Ava}-P[X3]PTAPP[X3]E-NH2; staple (Z) 2-8) | 200

Note: attention shifts to another entry.
Problem: Need Drug uptake of C[C@@H]1NC(=O)[C@H]([C@@H](C)O)NC(=O)[C@@H]2CCCN2C(=O)[C@H](CCC(=O)O)NC(=O)CN(C(=O)CCCCNC(=S)Nc2ccc3c(c2)C2(OC3=O)c3ccc(O)cc3Oc3cc(O)ccc32)CC/C=C/CCCCCCN(CC(=O)N[C@@H](CCC(=O)O)C(N)=O)C(=O)[C@@H]2CCCN2C(=O)[C@@H]2CCCN2C1=O ({Fluorescein(5-NHCS)-Ava}-[Gly(N-but-3-enyl)]EPTAPP[X3]E-NH2; staple (E) 1-8) , thanks.
Result: 100
